The origin of these recorded values is the supplement of paper PMC10567573.

B1: WSB1 (parent)
chain: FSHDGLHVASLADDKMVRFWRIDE

Variants of: B1
assay_text: protein stability index of a GFP-peptide fusion (GPS, HEK-293T) (PSI 1-6); higher = more stable;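 further: lentivirally expressed fusions sorted by FACS into six bins by GFP to DsRed ratio, PSI derived from sequencing read proportions per bin multiplied by bin number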
condition_description: c terminus: a fixed tail appended
Outcome label depends on protein stability index relative to 2: at/above gives 1, below gives -1.

Examples with answers:
- FSHDGLHVASLADDKMVRGWRIDE [F19G]: 1
- FSHDGLGVASLADDKMVRFWRIDE [H7G]: -1
- FSHDGLHVASLADDKMVRFWRMDE [I22M]: 1
- FSHDGLHVASLACDKMVRFWRIDE [D13C]: -1
- FSHDGLHVASLALDKMVRFWRIDE [D13L]: 1
- FSHDGLHVASLADDFMVRFWRIDE [K15F]: -1

Request: # bool: protein stability index of FSHDGLHVASLTDDKMVRFWRIDE [A12T] >= 2
Result: -1

Request: Same question for FSHDGLHVASLADDKMVMFWRIDE [R18M] please.
Result: 1

Request: Same question for FSHDGLHVASLADDDMVRFWRIDE [K15D] please.
Result: 1

Request: Same question for FSHDGLVVASLADDKMVRFWRIDE [H7V] please.
Result: 1

Request: Same question for FSHDGLHVASLADDKMVRFVRIDE [W20V] please.
Result: 1

Request: Same question for FSHDGLHVASMADDKMVRFWRIDE [L11M] please.
Result: -1

Request: Same question for FSHDGLHVASLADDKMVRFWRITE [D23T] please.
Result: -1

Request: Same question for FSMDGLHVASLADDKMVRFWRIDE [H3M] please.
Result: -1

Request: Same question for FSHDGLHVASLADTKMVRFWRIDE [D14T] please.
Result: -1
